Experiment: NCI Yeast Anticancer Drug Screen. Data for the mec2-1 strain (AID 157)
Settings: S. cerevisiae mec2-1 strain, at 50.0 µM, active compounds read high
Experimental: Growth inhibition of yeast strains with defined genetic alterations is measured as a screen for potential anti-cancer activity. Selected strains with alterations in DNA damage repair or cell cycle control were exposed to compounds and growth inhibition was measured relative to vehicle treated controls. The strain used in this assay is mec2-1
The panel holds about 79,000 compounds, 15% with a hit somewhere; the sample as a whole holds those more often.
MEASURED_ATTRIBUTE: growth inhibition (%)
I only need the number, in %, no unit after it.

# count of solved cases: 3
Cc1cc(C(O)(C(F)(F)F)C(F)(F)F)c(I)c(C(O)(C(F)(F)F)C(F)(F)F)c1: 99.2
CS/C(=N\N=C(/C)c1ccccn1)N1CCN(c2ccccn2)CC1: 82.2
CCCCC(CSC#N)SC#N (centres undefined): 98.3

// next entry
// query Please report the recorded growth inhibition for COC(=O)C(=C(c1ccccc1)c1ccccc1)c1ccccc1 .
// result 23.1

###

Parameter: growth inhibition. Scope: all listed entries.
Assay: NCI Yeast Anticancer Drug Screen. Data for the mec2-1 strain (AID 157)
Conditions: S. cerevisiae mec2-1 strain, at 50.0 µM, active compounds read high
Compounds without any hit were thinned out: in the full panel of roughly 79,000, 15% have a hit.
I only need the number, in %, no unit after it.

CCc1ccccc1NC(=O)C(C#N)C1=C(Cl)C(=O)c2ccccc2C1=O (centres undefined): 98.7
CCCCCCCCCCCCCCCCC/C=N\NC(=O)CCCC(=O)N/N=C/CCCCCCCCCCCCCCCCC: 99.1

// query Please report the recorded growth inhibition for CCC1(CC)COC(C)(C(=O)O)OC1 .
// result 11.1

// query Please report the recorded growth inhibition for Clc1cc(Cl)c2cc3cccc[n+]3cc2c1Cl .
// result 93.5

// query Please report the recorded growth inhibition for c1ccc2[nH]c(CN(CCN(Cc3nc4ccccc4[nH]3)Cc3nc4ccccc4[nH]3)Cc3nc4ccccc4[nH]3)nc2c1 .
// result 91.5

// query Please report the recorded growth inhibition for CC1CC(C)CC(C(O)(C(=O)O)C2CC(C)CC(C)C2)C1 (centres undefined) .
// result 97

// query Please report the recorded growth inhibition for CN(CN(C)N=Nc1ccc(Cl)cc1)CN(C)N=Nc1ccc(Cl)cc1 .
// result -1.75

// query Please report the recorded growth inhibition for COc1cccc(C2c3cc4c(cc3OC(NNc3ccccc3)C2C)OCO4)c1O (centres undefined) .
// result 95.3

// query Please report the recorded growth inhibition for O=C1NC(=S)S/C1=C\c1ccc(F)cc1 .
// result 85.7

###

Assay: NCI Yeast Anticancer Drug Screen. Data for the rad50 strain (AID 155);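 note: 0% = growth of vehicle-only cultures of the same strain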
Settings: S. cerevisiae rad50 strain growth inhibition; at 50.0 µM (retest, dose inferred, filed as 5.0); active compounds read high
The panel holds about 79,000 compounds, 15% with a hit somewhere; the sample as a whole holds those more often.
MEASURED_ATTRIBUTE: growth inhibition (%)
I only need the number, in %, no unit after it.

// query Please report the recorded growth inhibition for O=C1CNC(=O)c2cc(N=Cc3cc(Br)ccc3O)ccc2N1 .
// result 95

###

Test: NCI Yeast Anticancer Drug Screen. Data for the cln2 rad14 strain (AID 165);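 note: 0% = growth equal to vehicle treated cultures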
Details: S. cerevisiae cln2 rad14 strain, at 5.0 µM (retest, dose inferred, filed as 0.5), active compounds read high
Procedure: Growth inhibition of yeast strains with defined genetic alterations is measured as a screen for potential anti-cancer activity. Selected strains with alterations in DNA damage repair or cell cycle control were exposed to compounds and growth inhibition was measured relative to vehicle treated controls. The strain used in this assay is cln2 rad14
About 79,000 compounds went through this panel and 15% of them were active in at least one assay; those are over-represented in the sample as a whole.
MEASURED_ATTRIBUTE: growth inhibition (%)
I only need the number, in %, no unit after it.

# count of solved cases: 2
COc1ccccc1C(c1cc2c(cc1O)OCO2)N1CCOCC1 (configuration not stated): -12
O=C(O)c1cccc2c1Oc1c(cccc1C(=O)O)S2: 2

// query Please report the recorded growth inhibition for CC(C)c1cc(O)c(C(C)(C)C)cc1Cl .
// result 4

// query Please report the recorded growth inhibition for CC(C)CCCOC(=O)c1cc([N+](=O)[O-])cc([N+](=O)[O-])c1 .
// result 3

// query Please report the recorded growth inhibition for COC1CC(C)(NC(C)=O)C2OC(c3ccccc3)OCC2O1 (configuration not stated) .
// result -40

// query Please report the recorded growth inhibition for COc1ccc(-n2cc(-c3ccc(Cl)cc3)c3c(N)ncnc32)cc1 .
// result 13

// query Please report the recorded growth inhibition for CC1(C)C/C(=N/NC(N)=S)C(=NO)/C(=N\NC(N)=S)C1 .
// result -13
